- PROTOCOL_DESCRIPTION: Pharmacokinetics of HLJDD components in rat plasma after oral administration of HLJDD (LC-QqQ-MS, non-compartmental)
- Assay type: in vivo, Sprague-Dawley rats
- EXPERIMENTAL_CONTEXT: inflamed rats (group M), oral HLJDD extract, crude material 3.5 g/kg, plasma, n = 6
OBSERVABLE: Cmax2 (ng/mL)
A number alone suffices; assume ng/mL.

Some solved entries appear below for comparison.
[
  {
    "MOLECULE": "O=C(O)[C@H]1O[C@@H](Oc2cc3oc(-c4ccccc4)cc(=O)c3c(O)c2O)[C@H](O)[C@@H](O)[C@@H]1O",
    "OBS_VALUE": 1000.4
  },
  {
    "MOLECULE": "COc1c(O[C@@H]2O[C@H](C(=O)O)[C@@H](O)[C@H](O)[C@H]2O)cc2oc(-c3ccccc3)cc(=O)c2c1O [oroxylin A-7-O-glucuronide]",
    "OBS_VALUE": 65.5
  },
  {
    "MOLECULE": "COc1c(O[C@@H]2O[C@H](C(=O)O)[C@@H](O)[C@H](O)[C@H]2O)cc(O)c2c(=O)cc(-c3ccccc3)oc12 [wogonoside]",
    "OBS_VALUE": 323.9
  }
]

-- ask // fetch Cmax2 given entry COc1ccc2cc3[n+](cc2c1OC)CCc1cc2c(cc1-3)OCO2
-- reply 0.3

-- ask Identify measured Cmax2 associated with COc1c(O)cc(O)c2c(=O)cc(-c3ccccc3)oc12
-- reply 4.3

-- ask Indicate its recorded Cmax2; the molecule in question is COc1c(O)cc2oc(-c3ccccc3)cc(=O)c2c1O
-- reply 2.3

----------
- PROTOCOL_DESCRIPTION: Pharmacokinetics of HLJDD components in rat plasma after oral administration of HLJDD (LC-QqQ-MS, non-compartmental)
- Assay type: in vivo, Sprague-Dawley rats
- EXPERIMENTAL_CONTEXT: male, Sprague-Dawley, rat, plasma, po, 3.5 g/kg, normal rats (group B), oral HLJDD extract, crude material 3.5 g/kg, plasma, n = 6; read-out: CL/F (converted)
OBSERVABLE: CL/F
Lab note: write values as number then unit, every time.

-- ask Retrieve CL/F measured for O=C(O)[C@H]1O[C@@H](Oc2cc3oc(-c4ccccc4)cc(=O)c3c(O)c2O)[C@H](O)[C@@H](O)[C@@H]1O and print it.
-- reply 258 mL/min/kg

----------
- PROTOCOL_DESCRIPTION: Pharmacokinetics of HLJDD components in rat plasma after oral administration of HLJDD (LC-QqQ-MS, non-compartmental)
- Assay type: in vivo, Sprague-Dawley rats
- EXPERIMENTAL_CONTEXT: inflamed rats (group M), oral HLJDD extract, crude material 3.5 g/kg, plasma, n = 6
AUC%Extrap values by entry
Report the figure in % without appending any unit label.

See these solved cases before continuing.
[
  {
    "COMPOUND": "COC(=O)C1=CO[C@@H](O[C@@H]2O[C@H](CO)[C@@H](O)[C@H](O)[C@H]2O)[C@@H]2C(CO)=CC[C@H]12 [geniposide]",
    "AUC%Extrap, %": 8.9
  },
  {
    "COMPOUND": "COc1ccc2cc3[n+](cc2c1OC)CCc1cc2c(cc1-3)OCO2 [berberine]",
    "AUC%Extrap, %": 10.7
  },
  {
    "COMPOUND": "COc1c(O[C@@H]2O[C@H](C(=O)O)[C@@H](O)[C@H](O)[C@H]2O)cc2oc(-c3ccccc3)cc(=O)c2c1O [oroxylin A-7-O-glucuronide]",
    "AUC%Extrap, %": 46.2
  }
]

-- ask Please supply the value of reported AUC%Extrap for the item O=C(O)[C@H]1O[C@@H](Oc2cc3oc(-c4ccccc4)cc(=O)c3c(O)c2O)[C@H](O)[C@@H](O)[C@@H]1O [baicalin]
-- reply 2.7
